Could you please report measured abundance fitness for the items listed next?
B1: Dystrobrevin alpha, residues 235 to 294; numbered along this chain, Q9Y4J8 (parent)
chain: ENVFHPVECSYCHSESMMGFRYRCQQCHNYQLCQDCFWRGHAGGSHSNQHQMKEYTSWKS

Variants of: B1
measurement-notes: abundance fitness (aPCA) (normalised: wild type 0, dead -1); higher = more abundant; growth selection in yeast, the domain comes from the species named
stated-conditions: Homo sapiens
// response body must contain only the number

Provide abundance fitness value for the following variant: S16G
-0.128

Provide abundance fitness value for the following variant: S16H
-0.206

Provide abundance fitness value for the following variant: G44S
-0.209

Provide abundance fitness value for the following variant: V7M
-0.08

Provide abundance fitness value for the following variant: A42P
-0.421

Provide abundance fitness value for the following variant: Y55W
0.06

Provide abundance fitness value for the following variant: D35H
0.001

Provide abundance fitness value for the following variant: T56G
0.024

Provide abundance fitness value for the following variant: W58N
0.232

Provide abundance fitness value for the following variant: C33Q
-0.609

Provide abundance fitness value for the following variant: N48K
-0.248

Provide abundance fitness value for the following variant: H50W
-0.624

Provide abundance fitness value for the following variant: P6A
0.07

Provide abundance fitness value for the following variant: C24D
-0.441

Provide abundance fitness value for the following variant: Y30G
-0.553

Provide abundance fitness value for the following variant: S45Y
-0.605

Provide abundance fitness value for the following variant: H41Q
0.146

Provide abundance fitness value for the following variant: W38E
0.287

Provide abundance fitness value for the following variant: N2E
0.032

Provide abundance fitness value for the following variant: H50A
-0.543

Provide abundance fitness value for the following variant: R23C
0.176

Provide abundance fitness value for the following variant: S47C
-0.103

Provide abundance fitness value for the following variant: C33L
-0.874

Provide abundance fitness value for the following variant: F4P
-0.107

Provide abundance fitness value for the following variant: H46V
-0.227

Provide abundance fitness value for the following variant: S47Y
-0.57

Provide abundance fitness value for the following variant: P6W
-0.127

Provide abundance fitness value for the following variant: N48G
-0.045

Provide abundance fitness value for the following variant: C24I
-0.822

Provide abundance fitness value for the following variant: C24G
-0.736

Provide abundance fitness value for the following variant: V3I
-0.006

Provide abundance fitness value for the following variant: Y30D
-0.508

Provide abundance fitness value for the following variant: R21E
-0.07

Provide abundance fitness value for the following variant: H28S
0.027

Provide abundance fitness value for the following variant: G43L
-0.221

Provide abundance fitness value for the following variant: Q31D
-0.012

Provide abundance fitness value for the following variant: Q34F
-0.394

Provide abundance fitness value for the following variant: K59T
0.049

Provide abundance fitness value for the following variant: G19E
-0.103

Provide abundance fitness value for the following variant: P6Q
-0.191

Provide abundance fitness value for the following variant: L32Q
-0.455

Provide abundance fitness value for the following variant: R39Y
-0.099

Provide abundance fitness value for the following variant: G40R
-0.206

Provide abundance fitness value for the following variant: E54T
0.312

Provide abundance fitness value for the following variant: F37T
-0.439

Provide abundance fitness value for the following variant: A42K
-0.224

// data source = the Human Domainome abundance scans (Beltran et al. 2025)
